# measurement.target: Broad substrate specificity ATP-binding cassette transporter ABCG2 (Homo sapiens, UniProt Q9UNQ0)
# Sequence (Q9UNQ0 whole entry): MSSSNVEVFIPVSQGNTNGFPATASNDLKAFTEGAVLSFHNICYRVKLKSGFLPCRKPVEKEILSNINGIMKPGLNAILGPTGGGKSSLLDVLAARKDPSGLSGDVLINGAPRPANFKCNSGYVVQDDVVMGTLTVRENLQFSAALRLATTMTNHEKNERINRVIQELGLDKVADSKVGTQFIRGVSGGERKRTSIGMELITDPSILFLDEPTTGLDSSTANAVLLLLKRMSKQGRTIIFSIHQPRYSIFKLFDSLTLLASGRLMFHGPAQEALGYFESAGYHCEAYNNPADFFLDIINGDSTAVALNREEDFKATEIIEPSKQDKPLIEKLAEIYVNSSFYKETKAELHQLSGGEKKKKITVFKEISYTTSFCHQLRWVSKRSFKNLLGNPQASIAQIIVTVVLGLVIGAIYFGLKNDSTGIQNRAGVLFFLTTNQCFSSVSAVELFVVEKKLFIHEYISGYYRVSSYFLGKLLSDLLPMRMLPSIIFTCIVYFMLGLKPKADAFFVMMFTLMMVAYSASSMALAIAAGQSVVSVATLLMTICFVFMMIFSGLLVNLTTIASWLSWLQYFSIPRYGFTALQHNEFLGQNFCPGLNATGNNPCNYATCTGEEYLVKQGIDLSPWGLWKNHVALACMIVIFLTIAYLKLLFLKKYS
# assay.name: Inhibition of human ABCG2 expressed in Sf9 insect cell membranes assessed as inhibition of quercetin-stimulated ATPase activity after 30 mins by colorimetric analysis in presence of sodium orthovanadate
pIC50: −log10 of the molar value.
pIC50 vs 7: at or above is y, below is n.

INSERT INTO assay_data (smiles_entry, assigned_class) VALUES
  ('COc1ccc2c(CCNC(=O)c3cc(=O)c4c(OCc5ccc(Br)cc5)cccc4o3)c[nH]c2c1', 'n'),
  ('COc1ccc2[nH]cc(CCNC(=O)c3cc(=O)c4c(OCc5ccc(Br)cc5)cccc4o3)c2c1', 'n');

*Q* Threshold query (pIC50 >= 7) on Cn1cc(CCNC(=O)c2cc(=O)c3c(OCc4ccc(Br)cc4)cccc3o2)c2ccccc21
*A* n

*Q* hey, is pIC50 for this one >= 7? COc1ccc2[nH]cc(CCN(C)C(=O)c3cc(=O)c4c(OCc5ccc(Br)cc5)cccc4o3)c2c1
*A* n

*Q* Kindly determine if pIC50 recorded for COc1ccc2[nH]cc(CCNC(=O)c3cc(=O)c4cc(OCc5ccc(Br)cc5)ccc4o3)c2c1 is above or exactly 7.
*A* n

*Q* Could you verify whether the entry COc1ccc2[nH]cc(CCNC(=O)c3cc(=O)c4ccc(OCc5ccc(Br)cc5)cc4o3)c2c1 shows pIC50 of no less than 7?
*A* y

###

# measurement.target: Broad substrate specificity ATP-binding cassette transporter ABCG2 (Homo sapiens, UniProt Q9UNQ0)
# assay.name: Inhibition of ABCG2 (unknown origin)-mediated mitoxantrone efflux expressed in HEK293 cells after 30 mins by flow cytometric analysis
# Format: cell-based
pEC50 listing for selected compounds.
// pEC50 here means minus log10 of the molar concentration (mol/L)

Solved cases below.
INSERT INTO results (smiles_entry, endpoint_value) VALUES
  ('COc1ccc2c(CCNC(=O)c3cc(=O)c4c(OCc5ccc(Br)cc5)cccc4o3)c[nH]c2c1', 7.00),
  ('COc1ccc2[nH]cc(CCN(C)C(=O)c3cc(=O)c4c(OCc5ccc(Br)cc5)cccc4o3)c2c1', 6.02),
  ('COc1ccc2[nH]cc(CCNC(=O)c3cc(=O)c4cc(OCc5ccc(Br)cc5)ccc4o3)c2c1', 6.54),
  ('COc1ccc2[nH]cc(CCN(C)Cc3cc(=O)c4c(OCc5ccc(Br)cc5)cccc4o3)c2c1', 5.95);

The compound listed as O=C(NCc1cn(Cc2ccccc2)nn1)c1cc(=O)c2c(OCc3ccc(Br)cc3)cccc2o1 shows pEC50 equal to 5.82

###

# log10 EC50 per record follows
# measurement.target: Broad substrate specificity ATP-binding cassette transporter ABCG2 (Homo sapiens)
# Sequence (Q9UNQ0 whole entry): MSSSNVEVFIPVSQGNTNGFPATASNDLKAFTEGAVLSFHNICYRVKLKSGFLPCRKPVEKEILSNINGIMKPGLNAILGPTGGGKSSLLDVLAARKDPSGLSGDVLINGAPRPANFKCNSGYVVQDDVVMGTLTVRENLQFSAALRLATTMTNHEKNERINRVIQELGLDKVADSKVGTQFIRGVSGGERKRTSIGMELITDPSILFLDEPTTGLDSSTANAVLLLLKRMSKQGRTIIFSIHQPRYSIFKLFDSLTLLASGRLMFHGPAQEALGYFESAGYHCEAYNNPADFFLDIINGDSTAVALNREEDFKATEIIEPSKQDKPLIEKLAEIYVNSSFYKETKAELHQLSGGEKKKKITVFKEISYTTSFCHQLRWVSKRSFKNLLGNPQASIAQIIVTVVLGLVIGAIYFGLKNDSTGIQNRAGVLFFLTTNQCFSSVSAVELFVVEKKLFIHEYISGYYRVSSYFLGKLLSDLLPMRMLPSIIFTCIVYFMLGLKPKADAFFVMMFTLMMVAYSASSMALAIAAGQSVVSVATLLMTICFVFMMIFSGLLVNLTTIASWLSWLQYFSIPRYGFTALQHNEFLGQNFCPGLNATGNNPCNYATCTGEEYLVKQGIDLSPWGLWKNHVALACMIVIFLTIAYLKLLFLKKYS
# assay.name: Inhibition of ABCG2 (unknown origin)-mediated mitoxantrone efflux expressed in HEK293 cells after 30 mins by flow cytometric analysis
# Assay type: cell-based
Use the decimal logarithm of EC50 (nM).

INSERT INTO assay_data (smiles_entry, measurement_target, endpoint_value) VALUES
  ('CN(CCc1c[nH]c2ccccc12)C(=O)c1cc(=O)c2cc(OCc3ccc(Br)cc3)ccc2o1', 'Broad substrate specificity ATP-binding cassette transporter ABCG2 (Homo sapiens)', 3.41);

For the compound O=C(NCc1cn(Cc2ccc(Br)cc2)nn1)c1cc(=O)c2c(OCc3ccc(Br)cc3)cccc2o1 , the measured log10 EC50 on Broad substrate specificity ATP-binding cassette transporter ABCG2 (Homo sapiens) was 2.76

Here COc1ccc2[nH]cc(CCNC(=O)c3cc(=O)c4c(OCc5ccc(Br)cc5)cccc4o3)c2c1 was tested on Broad substrate specificity ATP-binding cassette transporter ABCG2 (Homo sapiens), and its log10 EC50 came to 2.11

The compound CN(CCc1cn(C)c2ccccc12)C(=O)c1cc(=O)c2c(OCc3ccc(Br)cc3)cccc2o1 on Broad substrate specificity ATP-binding cassette transporter ABCG2 (Homo sapiens): log10 EC50 was 3.00

GET /values?item= COc1ccc2[nH]cc(CCNC(=O)c3cc(=O)c4ccc(OCc5ccc(Br)cc5)cc4o3)c2c1 &system= Broad substrate specificity ATP-binding cassette transporter ABCG2 (Homo sapiens) returns log10 EC50: 3.10

###

inhibition at 72 h, 0.2 µM for assorted compounds
# measurement.target: ABCG2 (Homo sapiens)
# assay.name: Inhibition of ABCG2 in mitoxantrone-selected human H460 cells assessed as reversal of mitoxantrone-resistance at 0.2 uM after 72 hrs by MTT assay relative to control
# Assay type: cell-based
# protocol.conditions: probe mitoxantrone

INSERT INTO assay_data (smiles_entry, endpoint_value) VALUES
  ('COc1ccc2c(CCNC(=O)c3cc(=O)c4c(OCc5ccc(Br)cc5)cccc4o3)c[nH]c2c1', '> 50%');

# next compound below
Record summary for Cn1cc(CCNC(=O)c2cc(=O)c3c(OCc4ccc(Br)cc4)cccc3o2)c2ccccc21 : reported inhibition at 72 h, 0.2 µM = > 4%

###

# measurement.target: Broad substrate specificity ATP-binding cassette transporter ABCG2 (Homo sapiens)
# assay.name: Binding affinity to ABCG2 (unknown origin) expressed in HEK293 cells assessed as modulation of 5D3 binding at 2 uM after 45 mins by flow cytometric analysis relative to Ko143
# Type: cell-based
# protocol.conditions: hek293, 0.75 h
# cutoff 80% applies to Activity; >= gives label 1, < gives label 0

Example results:
INSERT INTO assay_data (smiles_entry, assigned_class) VALUES
  ('COc1ccc2[nH]cc(CCNC(=O)c3cc(=O)c4cc(OCc5ccc(Br)cc5)ccc4o3)c2c1', 'label 1'),
  ('CN(CCc1c[nH]c2ccccc12)C(=O)c1cc(=O)c2c(OCc3ccc(Br)cc3)cccc2o1', 'label 0'),
  ('COc1ccc2[nH]cc(CCNC(=O)c3cc(=O)c4ccc(OCc5ccc(Br)cc5)cc4o3)c2c1', 'label 0');

*Q* API: above_or_equal(metric=Activity, cutoff=80%) for item CN(CCc1c[nH]c2ccccc12)Cc1cc(=O)c2c(OCc3ccc(Br)cc3)cccc2o1.Cl
*A* label 0

*Q* Hi team, for COc1ccc2[nH]cc(CCNC(=O)c3cc(=O)c4c(OCc5ccc(Br)cc5)cccc4o3)c2c1 , is the recorded Activity at or above 80%?
*A* label 1
